# Tested on: T1, IsdB (iron-regulated surface determinant protein B), recombinant (Staphylococcus aureus, UniProt A6QG30 41-609)
# T1 construct: also called recombinant IsdB
# T1 sequence (A6QG30 41-609 limits assumed): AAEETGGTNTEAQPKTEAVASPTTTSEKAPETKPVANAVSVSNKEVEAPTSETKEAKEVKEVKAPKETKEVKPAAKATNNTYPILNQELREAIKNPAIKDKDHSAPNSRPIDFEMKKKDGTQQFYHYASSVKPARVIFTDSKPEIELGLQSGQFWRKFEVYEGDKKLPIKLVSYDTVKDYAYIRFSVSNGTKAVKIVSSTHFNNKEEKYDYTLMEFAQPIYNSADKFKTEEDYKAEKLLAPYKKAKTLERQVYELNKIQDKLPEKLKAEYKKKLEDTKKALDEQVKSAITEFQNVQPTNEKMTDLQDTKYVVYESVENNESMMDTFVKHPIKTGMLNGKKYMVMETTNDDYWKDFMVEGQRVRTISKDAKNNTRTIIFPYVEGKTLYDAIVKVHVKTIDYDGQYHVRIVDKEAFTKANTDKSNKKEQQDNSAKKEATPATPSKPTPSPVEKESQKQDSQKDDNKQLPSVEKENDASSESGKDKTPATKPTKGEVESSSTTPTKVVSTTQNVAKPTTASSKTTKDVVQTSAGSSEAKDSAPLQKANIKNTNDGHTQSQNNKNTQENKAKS
# Method summary: ELISA on coated recombinant antigen, half-maximal binding
Measured attribute: EC50 (µg/mL)

INSERT INTO measurements (binder, readout_value) VALUES
  ('STAU-280 (antibody, V domains shown) VH: EVQLVESGGGLVQTGGSLRLSCAASGFTFSRYNMNWVRQAPGKGLEWVSFISATSSSIYYADSVKGRFTISRDNAKNSLDLQMNSLRDEDTAVYFCVREDAAIFGVGSWFDPWGQGTLVTVSS VL: EIVMTQSPATLSVSPGERATLSCRASQSVSSNLAWYQQKPGQAPRLLIYGASTRATGIPARFSGSGSGTEFTLTISSLQSEDFAVYFCQEYNDWPLYTFGQGTKLEIK', 7.6),
  ('STAU-389 (antibody, V domains shown) VH: QVQLVQSGAEVKQSGSSLKVSCKVSGGNLRSYGISWVRQAPGQGLEWMGVIIPIFGAPTYAQKFQGRVTFVADDGNNVVFMELSSLRSEDTAVYYCARDWPSITVAVDAINFAMDVWGQGTLVTVSS VL: QSALTQPRSVSGSPGQSVTISCTGTNNDVGSYDHVSWYQQHPGKAPKFIIYDVSTRPSGVPDRFSGSKSDNTASLTISGLQAEDEADYYCCSFAGSYTYVFGTGTTVTVL', 0.13),
  ('STAU-239 (antibody, V domains shown) VH: QVQLVQSGAEVKKPGSSVKVSCRASGGPFNTYVITWVRQAPGQGLEWMGGIVPVFNTSHSAQKFQGRVKISADTSTNTVYMELTSLTFEDTAVYFCARDGAAAPLNWYDPWGQGTLVTVSS VL: SYVLTQPPSVSLAPGQTATLTCGGNNIGSKSVHWYQKKPGQAPVLVVYDVRDRPSGIPERFSGSSSENTATLTLSRVEAEDEADYYCQVWESTTSHVIFGGGTKLTVL', 0.001);
